- test-target: T1, EsCas13d, nuclease-dead (Eubacterium siraeum, UniProt B0MS50, R295A;H300A;R849A;H854A)
- T1 sequence: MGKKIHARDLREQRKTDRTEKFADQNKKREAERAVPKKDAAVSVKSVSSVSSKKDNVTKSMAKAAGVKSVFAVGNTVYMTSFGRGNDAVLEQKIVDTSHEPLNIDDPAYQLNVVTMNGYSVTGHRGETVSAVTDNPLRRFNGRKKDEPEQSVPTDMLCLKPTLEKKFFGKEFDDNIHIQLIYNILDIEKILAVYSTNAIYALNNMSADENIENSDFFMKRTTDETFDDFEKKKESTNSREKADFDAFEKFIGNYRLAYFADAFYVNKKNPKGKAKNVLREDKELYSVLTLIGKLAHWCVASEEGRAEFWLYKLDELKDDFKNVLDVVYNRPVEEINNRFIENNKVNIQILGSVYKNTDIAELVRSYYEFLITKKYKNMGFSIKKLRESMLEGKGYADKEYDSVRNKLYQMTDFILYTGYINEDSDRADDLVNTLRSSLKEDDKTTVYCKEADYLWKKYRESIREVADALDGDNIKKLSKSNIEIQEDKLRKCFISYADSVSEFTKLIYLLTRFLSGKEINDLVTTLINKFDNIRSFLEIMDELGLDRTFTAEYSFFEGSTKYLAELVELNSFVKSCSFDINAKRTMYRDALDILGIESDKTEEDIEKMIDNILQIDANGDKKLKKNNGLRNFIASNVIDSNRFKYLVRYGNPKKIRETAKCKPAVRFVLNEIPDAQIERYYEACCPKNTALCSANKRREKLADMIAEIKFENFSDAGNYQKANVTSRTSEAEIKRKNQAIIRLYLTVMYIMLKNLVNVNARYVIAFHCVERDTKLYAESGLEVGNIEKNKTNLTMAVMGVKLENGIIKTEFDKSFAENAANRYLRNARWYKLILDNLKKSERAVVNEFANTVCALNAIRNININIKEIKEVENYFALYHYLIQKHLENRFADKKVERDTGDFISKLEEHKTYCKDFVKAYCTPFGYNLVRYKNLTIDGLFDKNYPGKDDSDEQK
- method: crRNA (strand 1, pre-loaded); Mg2+; 40 mM Tris-HCl pH 7.5, 150 mM NaCl, 6 mM MgCl2, 1 mM DTT, 0.1% Tween-20, 0.2 mg/ml BSA; 25 C; 10 min per concentration, then washed
- reported-conditions: tags: His6-TwinStrep-SUMO cleaved; N-terminal SNAP kept (SNAP-Surface 488); label: 3' end held by stalled T7 RNA polymerase
Provide the recorded pKd for the entries that follow.
Quick note: pKd values are minus log10 of concentrations in mol/L.

Tell us which pKd value is on record for target 1 MT 5'PFS UAG 3'PFS UCC (mixed) RNA 1: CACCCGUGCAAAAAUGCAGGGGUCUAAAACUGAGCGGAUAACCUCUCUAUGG RNA 2: GGGAAUGGAUCCACAUCUACGAAUUCUAGCCAUAGAGAGGUUAUCCGCUCAUCCAGAUCGGAAGAGCACACGU
7.20

Tell us which pKd value is on record for target 1 C7G,A9U (mixed) RNA 1: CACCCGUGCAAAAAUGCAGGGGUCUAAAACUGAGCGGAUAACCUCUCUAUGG RNA 2: GGGAAUGGAUCCACAUCUACGAAUUCGUACCAUAGAGAGGUUUUGCGCUCACCGAGAUCGGAAGAGCACACGU
8.12

Where do these numbers come from? They come from paper PMC10786891.
